// reported KM for each item listed
B1: glmS ribozyme (parent)
chain: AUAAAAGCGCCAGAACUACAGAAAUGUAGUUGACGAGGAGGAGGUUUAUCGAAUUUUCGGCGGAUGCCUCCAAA

variants of: B1; experiment: KM; higher = weaker cofactor use; RNA array; conditions: with glucosamine-6-phosphate
Entry rule: numbers only, all in µM.

// worked examples, KM included
| CHANGE | KM, µM |
| --- | --- |
| G37A G63A | 278 |
| A53G C58A | 2190 |
| G41U A53G | 291 |
| U55C G62C | 1220 |
| G62U C68A | 129 |
| U31C U65C | 238 |
| A12C U47C | 1840 |
| U45G U46C | 3530 |
| U46G C71A | 935 |
| U46G C67G | 1360 |

Request: Look at this variant and give its reported KM. A14U A52G
Result: 2840

Request: Here is the next variant: U47A C67G
Result: 2020

Request: Here is the next variant: A6G A15G
Result: 2540

Request: Here is the next variant: C10U G59U
Result: 2000

Request: Here is the next variant: U31G A39U
Result: 3520

Request: Here is the next variant: C11A A53U
Result: 2860

Request: Here is the next variant: A15G G32C
Result: 8170

Request: Here is the next variant: U30C G32U
Result: 3230

// provenance: the supplement of paper PMC7125110
